Biological target: T1, human IL-11 (human, UniProt P20809 22-199)
T1 construct: bought from Invigate; also called hIL-11; hIL11
T1 sequence: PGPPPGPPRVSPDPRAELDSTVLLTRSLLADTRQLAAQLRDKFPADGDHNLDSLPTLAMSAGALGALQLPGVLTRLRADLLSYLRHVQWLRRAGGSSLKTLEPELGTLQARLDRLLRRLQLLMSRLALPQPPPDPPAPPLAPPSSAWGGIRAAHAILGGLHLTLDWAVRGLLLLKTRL
Assay: SPR, antibody captured, IL-11 as analyte
value_kind: Kd (µM)
Give the value in µM but do not write µM after it.

response.value for TPP-26297 (antibody, V domains shown, constant regions not restated) VH: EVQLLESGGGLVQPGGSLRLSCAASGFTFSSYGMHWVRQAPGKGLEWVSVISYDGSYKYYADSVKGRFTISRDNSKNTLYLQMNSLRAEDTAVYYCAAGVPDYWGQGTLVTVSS VL: QSVLTQPPSASGTPGQRVTISCTGSSSNIGAGYDVHWYQQLPGTAPKLLIYSNNERPSGVPDRFSGSKSGTSASLAISGLRSEDEADYYCAAWQDSLNGPVFGGGTKLTVL (field: Kd) = 0.013

response.value for TPP-26315 (antibody, V domains shown, constant regions not restated) VH: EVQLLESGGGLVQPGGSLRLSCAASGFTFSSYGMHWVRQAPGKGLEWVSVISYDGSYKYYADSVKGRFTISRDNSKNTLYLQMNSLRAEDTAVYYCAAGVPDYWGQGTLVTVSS VL: QSVLTQPPSASGTPGQRVTISCTGSSSNIGAHYDVHWYQQLPGTAPKLLIYSNNERPSGVPDRFSGSKSGTSASLAISGLRSEDEADYYCAAWDDSLNGPVFGGGTKLTVL (field: Kd) = 0.014
